Where do the numbers come from? From paper PMC7305997.

Target: T1, Full length human CIB1 (calcium and integrin binding protein 1), N-terminal hexahistidine tag (human, UniProt Q99828 1-191)
T1 sequence (looked up): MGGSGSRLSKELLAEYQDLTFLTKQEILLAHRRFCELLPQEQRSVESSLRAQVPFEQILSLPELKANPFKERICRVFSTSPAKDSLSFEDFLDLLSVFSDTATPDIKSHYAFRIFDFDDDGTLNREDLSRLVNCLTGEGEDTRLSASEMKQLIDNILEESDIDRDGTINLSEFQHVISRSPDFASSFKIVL
Experiment: ITC
MEASUREMENT_NAME: stoichiometry N

// below: answered binders
BINDER	stoichiometry N
EDGGSFWYGAMKGLYG [UNC10245092 A8G]	1
EDGGSFWYGGMKALYG [UNC10245092 A5G]	1
EDGGSFWYGAMKALAG [UNC10245092 Y10A]	1.1
EDGGSFWYGAMKAAYG [UNC10245092 L9A]	0.99
H-EDGGSFWYGAMKALYG-NH2 [UNC10245092 (NH2-EDGGSFWYGAMKALYG-amide)]	1.1

a: EDGGSFWYGAAKALYG [UNC10245092 M6A]
b: EDGGSFAYGAMKALYG [UNC10245092 W2A]
Which value of stoichiometry N is smaller, the one for a or the one for b ? Label of pick, please.
b
